These data points were gathered from paper PMC9120017.

target: mouse TMEM16A mutant T518A (Mus musculus, UniProt Q8BHY3, T518A); construct: expressed in transfected cells; host or cells: HEK293T; test: Inside-out patch recording of 1PBC block, mutant T518A; type: cell-based; conditions: T518A; V -100 mV
MEASUREMENT_LABEL: pIC50
Keep in mind that pIC50 stands for -log10 of concentration in molar terms.

Per the records, this compound ( N#Cc1c(C(F)(F)F)cc(O)n2c1nc1ccccc12 [1PBC] ) has pIC50 equal to 4.74

---

Biological target: mouse TMEM16A mutant I640A (Mus musculus, UniProt Q8BHY3, I640A)
Construct: expressed in transfected cells; host or cells: HEK293T
Sequence (Q8BHY3 1-960 I640A): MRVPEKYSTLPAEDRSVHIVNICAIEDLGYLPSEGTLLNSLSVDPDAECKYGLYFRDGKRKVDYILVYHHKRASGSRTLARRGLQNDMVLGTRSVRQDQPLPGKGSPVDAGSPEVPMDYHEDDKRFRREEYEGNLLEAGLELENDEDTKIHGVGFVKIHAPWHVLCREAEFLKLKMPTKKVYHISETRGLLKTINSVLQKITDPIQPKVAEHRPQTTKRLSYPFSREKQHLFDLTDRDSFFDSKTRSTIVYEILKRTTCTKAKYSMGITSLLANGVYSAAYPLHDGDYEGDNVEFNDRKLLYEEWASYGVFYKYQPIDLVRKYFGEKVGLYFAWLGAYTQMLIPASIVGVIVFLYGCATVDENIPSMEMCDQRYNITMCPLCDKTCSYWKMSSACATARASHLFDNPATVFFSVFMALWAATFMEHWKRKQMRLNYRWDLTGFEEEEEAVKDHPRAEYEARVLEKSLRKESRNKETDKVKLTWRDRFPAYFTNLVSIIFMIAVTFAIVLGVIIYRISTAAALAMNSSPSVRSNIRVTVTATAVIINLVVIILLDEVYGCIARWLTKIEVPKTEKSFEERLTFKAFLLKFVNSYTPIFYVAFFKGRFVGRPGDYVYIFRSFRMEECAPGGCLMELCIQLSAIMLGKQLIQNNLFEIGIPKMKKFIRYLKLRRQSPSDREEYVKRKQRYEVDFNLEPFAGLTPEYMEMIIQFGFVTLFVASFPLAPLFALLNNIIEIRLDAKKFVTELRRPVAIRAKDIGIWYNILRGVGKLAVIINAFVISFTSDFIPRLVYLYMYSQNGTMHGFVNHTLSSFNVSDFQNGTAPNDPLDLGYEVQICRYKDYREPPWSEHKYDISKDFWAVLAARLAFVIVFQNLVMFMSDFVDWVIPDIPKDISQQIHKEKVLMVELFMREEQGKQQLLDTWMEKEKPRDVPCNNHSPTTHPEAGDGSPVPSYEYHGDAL
Assay: Inside-out patch recording of 1PBC block, mutant I640A
Type: cell-based
Conditions: -40 mV; 15 µM Ca2+
MEASUREMENT_LABEL: IC50 (µM)
Numeric answer only, unit µM assumed.

Per the records, this molecule ( "N#Cc1c(C(F)(F)F)cc(O)n2c1nc1ccccc12" ) has IC50 equal to 41.5
